Listed next: entries and their corresponding IC50.
tested on: SK-BR-3 cells; assay: Measurement of cell growth inhibition (crystal violet staining method); assay type: cell-based; settings: Homo sapiens, SK-BR-3, 72 h
Give your result in nM as a bare value.

For CC(C)c1nn(-c2ccc(C(N)=O)c(N[C@H]3CC[C@H](O)CC3)c2)c2ccnc(-c3cnc4ccccc4c3)c12 on SK-BR-3 cells, measured IC50 was 820

For CC(C)c1nn(-c2ccc(C(N)=O)c(N[C@H]3CC[C@H](O)CC3)c2)c2cncc(-c3cnc4ccccc4c3)c12 on SK-BR-3 cells, measured IC50 was 110

For NCC(=O)O[C@H]1CC[C@H](Nc2cc(-n3cc(C(F)(F)F)c4c(-c5cnc6ccccc6c5)ccnc43)ccc2C(N)=O)CC1 [Example 44, dimethanesulfonate] on SK-BR-3 cells, measured IC50 was 10

For CCc1cn(-c2ccc(C(N)=O)c(N[C@H]3CC[C@H](OC(=O)CN)CC3)c2)c2nccc(-c3cnc4ccccc4c3)c12 [Example 42, dimethanesulfonate] on SK-BR-3 cells, measured IC50 was 30
